Recorded kon values for a group of binders are listed next.
Target: T1, human TIGIT protein (human, UniProt Q495A1 22-141, limits assumed)
T1 construct: Recombinant protein (Genentech) used in ELISA screening and as SPR analyte; also called TIGIT antigen
T1 sequence: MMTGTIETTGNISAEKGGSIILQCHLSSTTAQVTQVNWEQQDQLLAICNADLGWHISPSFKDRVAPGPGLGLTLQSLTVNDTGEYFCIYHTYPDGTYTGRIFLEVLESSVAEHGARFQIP
Assay: SPR, captured mAb
Enter your answer as a number in M⁻¹ s⁻¹; do not include the unit.

Illustrative cases are given below, each with its answer.
INSERT INTO assay_data (binder, readout_kind, experimental_value) VALUES
  ('7.4A3 (antibody, V domains shown, OMT rat-derived human antibody; also called 7.4A3.Q1.C96) VH: QVQLVQSGSDLKKPGASVRVSCKASGYTFTSYPMNWVRQAPGHGLEWMGWINTNTGNPTYVQGFTGRFVFSLDTSVNTAYLQISSLKAEDTAVYFCARTGGHTYDSYAFDVWGQGTMVTVSS VL: DIQLTQSPTFLSASVGDRVTITCRASQVISSSLAWYQQNPGKAPKLLIYAASTLQSGVPSRFSGSGSGTEFTLTISSLQPEDFVTYYCQHLHGYPCNFGQGTKVEIK', 'kon', 302000),
  ('7.4A3.C96Y.Q1E (antibody, V domains shown, No entry is tied to this variant by name; built from 7.4A3 with the two named changes (Q1E in the heavy chain, C96Y in HVR-L3); also called 7.4A3.Q1E.C96Y) VH: EVQLVQSGSDLKKPGASVRVSCKASGYTFTSYPMNWVRQAPGHGLEWMGWINTNTGNPTYVQGFTGRFVFSLDTSVNTAYLQISSLKAEDTAVYFCARTGGHTYDSYAFDVWGQGTMVTVSS VL: DIQLTQSPTFLSASVGDRVTITCRASQVISSSLAWYQQNPGKAPKLLIYAASTLQSGVPSRFSGSGSGTEFTLTISSLQPEDFVTYYCQHLHGYPYNFGQGTKVEIK', 'kon', 372000),
  ('4.1A4 (antibody, V domains shown, OMT rat-derived human antibody; also called 4.1A4.Q1.C96) VH: QVQLVQSGSELKKPGASVKVSCKASGYTLTNYPMNWVRQAPGRGLEWMGWINTNTGSPAYAQDFTERFVFSLDTSVTTAYLQISSLKAEDTAVYYCARTAITSVYHFDYWGQGTLVTVSS VL: DIQLTQSPSFLSASVGDRVTITCRASQGISSYLAWYQQKPGKAPRVLIYGATTLQSGVPSRFSGSESGTEFTLTISSLQPEDLATYYCQKLNSHPCSFGQGTKVEIK', 'kon', 342000);

Lab note: next binder to report on.
[ask] Suppose we examine the binder 7.4A3.C96S.Q1E (antibody, V domains shown, also called 7.4A3.Q1E.C96S) VH: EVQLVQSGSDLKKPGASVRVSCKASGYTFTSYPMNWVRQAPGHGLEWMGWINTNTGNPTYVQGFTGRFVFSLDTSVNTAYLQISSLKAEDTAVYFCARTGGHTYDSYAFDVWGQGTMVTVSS VL: DIQLTQSPTFLSASVGDRVTITCRASQVISSSLAWYQQNPGKAPKLLIYAASTLQSGVPSRFSGSGSGTEFTLTISSLQPEDFVTYYCQHLHGYPSNFGQGTKVEIK ; what kon value has been reported?
[reply] 288000
